target.system: HERG (Homo sapiens)
Construct: host or cells: HERG.T.HEK (HEK cells, Geneticin-selected)
Sequence (Q12809 whole entry): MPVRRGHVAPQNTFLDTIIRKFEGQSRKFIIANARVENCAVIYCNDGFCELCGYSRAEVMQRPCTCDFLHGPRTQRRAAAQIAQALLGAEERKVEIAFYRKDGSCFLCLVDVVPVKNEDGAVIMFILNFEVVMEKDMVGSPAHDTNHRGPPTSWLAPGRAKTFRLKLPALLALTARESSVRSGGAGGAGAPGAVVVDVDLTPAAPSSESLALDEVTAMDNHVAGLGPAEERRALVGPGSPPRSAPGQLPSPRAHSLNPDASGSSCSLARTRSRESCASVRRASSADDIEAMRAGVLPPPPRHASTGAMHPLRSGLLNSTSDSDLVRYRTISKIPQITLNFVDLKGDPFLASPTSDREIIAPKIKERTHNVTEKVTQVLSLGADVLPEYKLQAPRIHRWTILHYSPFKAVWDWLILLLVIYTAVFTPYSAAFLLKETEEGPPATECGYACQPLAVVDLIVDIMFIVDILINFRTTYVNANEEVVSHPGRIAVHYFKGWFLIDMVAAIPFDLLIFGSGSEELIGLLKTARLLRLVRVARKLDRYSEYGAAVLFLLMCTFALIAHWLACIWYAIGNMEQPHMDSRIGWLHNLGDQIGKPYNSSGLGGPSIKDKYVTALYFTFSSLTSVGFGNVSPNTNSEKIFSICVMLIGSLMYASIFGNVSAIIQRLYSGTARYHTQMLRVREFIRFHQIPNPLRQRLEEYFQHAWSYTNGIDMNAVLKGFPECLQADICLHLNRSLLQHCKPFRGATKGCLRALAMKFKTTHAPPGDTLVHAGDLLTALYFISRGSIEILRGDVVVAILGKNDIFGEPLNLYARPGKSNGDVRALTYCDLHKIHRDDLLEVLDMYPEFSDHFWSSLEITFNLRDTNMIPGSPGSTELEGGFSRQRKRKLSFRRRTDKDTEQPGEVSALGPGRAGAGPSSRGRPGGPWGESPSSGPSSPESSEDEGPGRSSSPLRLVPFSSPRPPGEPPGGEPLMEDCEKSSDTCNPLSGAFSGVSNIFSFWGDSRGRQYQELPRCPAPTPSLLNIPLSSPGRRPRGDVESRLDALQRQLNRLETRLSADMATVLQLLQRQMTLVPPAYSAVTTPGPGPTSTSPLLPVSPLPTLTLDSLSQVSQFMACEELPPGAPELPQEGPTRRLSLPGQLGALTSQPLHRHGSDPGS
method: Evaluation of HERG inhibitory activity (whole-cell patch clamp, HERG.T.HEK cells)
Type: cell-based
conditions.used: peak tail current
experimental.readout: HERG electric current inhibitory rate (%) of 10 μM compound
Note: unit % is implicit; provide only the numeric part.

// below: answered compounds
compound	target.system	quantitative.result
Cc1c(NC(=O)c2ccc(OC[C@@H]3CCCO3)cc2)ccc2cc(CN[C@H]3CC[C@](C)(O)CC3)cnc12	HERG (Homo sapiens)	2.1
Cc1c(NC(=O)c2ccc(OC[C@@H]3CCCO3)cc2)ccc2cc(CNC3CCOCC3)cnc12	HERG (Homo sapiens)	9.8
Cc1c(NC(=O)c2ccc(OCC3CC3)cc2)ccc2cc(CNC3CCC(C)(O)CC3)cnc12 (stereo not shown) [Com. Ex. 2, reference compound]	HERG (Homo sapiens)	44.9

Next, consider the following compound.
State the recorded HERG electric current inhibitory rate (%) of 10 μM compound for this entry: Cc1c(NC(=O)c2ccc(OCC3CC3)cc2)ccc2cc(CN[C@H]3CC[C@H](O)CC3)cnc12 [Com. Ex. 1, reference compound]
58
